Data credit: PubChem BioAssay (NCI)

- Test system: OVCAR-5 ovarian
- assay procedure: NCI tumour cell line growth inhibition, 48 h; in the data active means GI50 below about 0.43 µM; inactive means the rest
Valid outcomes are listed here; reply with one: Yes = active, No = inactive

# compound, measurement target, class label
data = [
    ("O=C1CC(=O)N(C(=O)c2nn(-c3ccc(Cl)cc3)cc2O)N1", "OVCAR-5 ovarian", "No"),
]

Can you look up the reported call for CC(C)C[C@H](NC(=O)Cn1ccc(NCc2ccccc2)cc1=O)B(O)O for me?
No

Can you look up the reported call for Cc1cc(O)cc2c1[C@]1(C)CCC3C(C)(C)CCC[C@]3(C)[C@H]1C2 (stereo not given in full) for me?
No

Can you look up the reported call for CS(=O)(=O)CCNCc1ccc(-c2ccc3ncnc(Nc4ccc(OCc5ccccc5)c(Br)c4)c3c2)o1 for me?
No

Can you look up the reported call for C[C@]12CC[C@@H]3c4cc(-c5ccc(F)cc5)c(O)cc4CC[C@H]3[C@@H]1CC[C@@H]2O for me?
No

Can you look up the reported call for Cc1ccc2c(-c3ccnc(Nc4ccccc4)n3)c(-c3ccc(F)cc3)nn2n1 for me?
No

Can you look up the reported call for COc1cccc(/C=C/[N+](=O)[O-])c1 for me?
No
